Test system: P. falciparum 3D7 (chloroquine-sensitive)
measurement protocol: Anti-malarial activity, P. falciparum 3D7 culture, 72 hour, DNA content by flow cytometry
Assay type: cell-based
protocol conditions: synchronized ring-stage parasites
Description: Numerous compounds were screened in cultures of the malaria parasite P. falciparum 3D7 (chloroquine-sensitive) and DD2 (chloroquine-resistant). The compounds were also screened for toxixcity against 3T3 cells, HepG2 cells, and in a hemolysis assay. In brief, P. falciparum parasites were cultured in RPMI 1640 (Invitrogen) supplemented with Albumax II (Invitrogen). […] DNA content, as an indicator of parasitemia, was analyzed on an Accuri C6 Flow Cytometer with C-Sampler. […]
value kind: IC50 (nM)

Consider the following illustrative entries.
compound: Nc1cc(NC(=O)c2cc(C(=O)Nc3ccc(N4CCNCC4)c(F)c3)ncn2)ccc1N1CCNCC1
target or system: P. falciparum 3D7 (chloroquine-sensitive)
IC50, nM: 56

compound: NCCc1cccc(-c2cc(-c3ccc(-c4cc(-c5cccc(CCN)c5)ncn4)s3)ncn2)c1
target or system: P. falciparum 3D7 (chloroquine-sensitive)
IC50, nM: 628

a = N=C(N)NCCCOc1cccc(-c2cncc(-c3ccc(-c4cncc(-c5cccc(OCCCNC(=N)N)c5)c4)s3)c2)c1
b = CC(N)C(=O)Nc1ccc(-c2ccc(-c3ccc(NC(=O)C(C)N)cc3)cc2)cc1 (centres unmarked)
c = CN(C)CCSc1cc(SCCN(C)C)c(C(F)(F)F)cc1NC(=O)c1cc(C(=O)Nc2cc(C(F)(F)F)c(SCCN(C)C)cc2SCCN(C)C)ncn1
### Prompt hey, can you rank those compounds up there by IC50? biggest number first please Answer by naming the labels in the order asked.
### Response a, b, c
